# key: entry, value: IC50 at 48 h
test: KeratinoSens assay: cytotoxicity / cellular viability; format: cell-based; conditions: human; 48 h incubation; read-out: Concentration for 50% Cytotoxicity
measurement-label: IC50 at 48 h (µM)

>>> df
                                   compound  observed_measurement
0  C/C=C/C(=O)O[C@H]1[C@@H](C)C=CCC1(C)C (relative stereo)                  89.4
1    C/C=C/C(=O)O[C@@H]1[C@H](C)CCC[C@@H]1C                  86.9
